Recorded values, source patent US6525001B1.

# Test system: bamyardgrass (Echinochloa crus-galli)
# TEST METHOD NOTES: Test B flood test
# Assay type: in vivo
# Set-up: key: 0 is no effect; 10 is complete control
# EXPERIMENTAL CONTEXT: Rate 250 g/ha, Postemergence (flood test species)
The label TRUE is reserved for Plant response rating, Barnyardgrass strictly under 4; FALSE covers values equal to or above it.

Solved cases (10 shown):
>>> print(df.to_string())
                                   compound  class
0       Cc1cnc(-c2ccccc2F)nc1Cc1cccc(C#N)c1   TRUE
1  COC(=O)C(c1cccc(C(F)(F)F)c1)c1nc(-c2ccc(C(F)(F)F)cc2)ncc1C (racemic)   TRUE
2  N#Cc1ccc(-c2nccc(C(=O)c3cccc(C(F)(F)F)c3)n2)cc1   TRUE
3  Cc1cnc(-n2cnc(C(F)(F)F)n2)nc1Cc1cccc(C(F)(F)F)c1  FALSE
4  Cc1cnc(-c2ccc(C(F)(F)F)cc2)nc1Cn1ccc(C(F)(F)C(F)(F)F)n1  FALSE
5  Cc1cnc(-n2cnc(C(F)(F)F)n2)nc1Cn1ccc(C(F)(F)F)n1  FALSE
6  CCc1cnc(-n2cnc(C(F)(F)F)c2)nc1C(=O)c1cccc(OC(F)(F)F)c1   TRUE
7  Cc1cnc(-n2ccc(C(F)(F)F)n2)nc1Cc1cccc(OC(F)(F)F)c1  FALSE
8  COc1cnc(-c2ccc(C(F)(F)F)cc2)nc1Cc1cccc(C(F)(F)F)c1  FALSE
9  Cc1cnc(-c2cccc(C(F)(F)F)c2)nc1Cc1cccc(C#N)c1   TRUE

Here is another compound to look at.
Field: below-cutoff. Rule: recorded Plant response rating, Barnyardgrass strictly less than 4. Subject: Cc1cnc(-c2ccc(Cl)c(Cl)c2)nc1Cc1cccc(C#N)c1
TRUE

----------
compounds and their reported Plant response rating, Redroot pigweed
# Test system: pigweed (Amaranthus retroflexus)
# TEST METHOD NOTES: Test B pre-/postemergence
# Assay type: in vivo
# Parameters: key: 0 is no effect; 10 is complete control
# EXPERIMENTAL CONTEXT: Rate 500 g/ha, Preemergence
// return a plain number; no unit text

Study these solved cases before continuing.
In [3]: df
Out[3]:
                               smiles_input                 target_under_test  endpoint_result
0  Cc1cnc(-n2cnc(C(F)(F)F)c2)nc1C(=O)c1cccc(C(F)(F)F)c1  pigweed (Amaranthus retroflexus)               10
1  Cc1cnc(-c2ccc(C(F)(F)F)cc2)nc1C(=O)c1ccc(C(F)(F)F)cc1  pigweed (Amaranthus retroflexus)                0
2  Cc1cnc(-n2ccc(C(F)(F)F)n2)nc1C(=O)c1cccc(C(F)(F)F)c1  pigweed (Amaranthus retroflexus)               10
3  Cc1cnc(-n2ccc(C(F)(F)C(F)(F)F)n2)nc1C(=O)c1cccc(C(F)(F)F)c1  pigweed (Amaranthus retroflexus)               10

For the compound Cc1cnc(-c2ccc(C(F)(F)F)cc2)nc1Cn1cc(I)cn1 , give its measured Plant response rating, Redroot pigweed value.
9

----------
# Tested on: broadleaf signalgrass (Brachiaria decumbens)
# TEST METHOD NOTES: Test B pre-/postemergence
# Type: in vivo
# EXPERIMENTAL CONTEXT: Rate 500 g/ha, Preemergence
molecules and their reported Plant response rating, B. signalgrass
// return a plain number; no unit text

Study these solved cases before continuing.
>>> print(df.to_string())
                               smiles_input                              parameter  endpoint_result
0  Cc1cnc(-c2ccc(C(F)(F)F)cc2)nc1Cn1nc(C(F)(F)F)cc1C  Plant response rating, B. signalgrass                9
1  Cc1cnc(-n2ccc(C(F)(F)F)n2)nc1C(=O)c1cccc(C(F)(F)F)c1  Plant response rating, B. signalgrass                9
2    Cc1cnc(-c2ccccc2)nc1Cn1ccc(C(F)(F)F)n1  Plant response rating, B. signalgrass                0

Okay, now this molecule:
For the molecule Cc1cnc(-c2ccc(C(F)(F)F)cc2)nc1Cc1cccc(C(F)(F)F)c1 , give its measured Plant response rating, B. signalgrass value.
9

----------
# Tested on: rape (Brassica napus)
# TEST METHOD NOTES: Test B pre-/postemergence
# Format: in vivo
# Set-up: key: 0 is no effect; 10 is complete control
# EXPERIMENTAL CONTEXT: Rate 500 g/ha, Preemergence
Assign Y to entries whose Plant response rating, Rape meets or exceeds 4; assign N to the rest.

Solved cases (3 shown):
                               smiles_input      target_under_test  class
0  Cc1cnc(-c2ccc(C(F)(F)F)cc2)nc1C(=O)c1cccc(C(F)(F)F)c1  rape (Brassica napus)      Y
1  Cc1cnc(-c2ccc(C(F)(F)F)cc2)nc1C(=O)c1ccc(C(F)(F)F)cc1  rape (Brassica napus)      N
2  Cc1cnc(-n2ccc(C(F)(F)C(F)(F)F)n2)nc1C(=O)c1cccc(OC(F)(F)F)c1  rape (Brassica napus)      N

Here is another compound to look at.
# check: Plant response rating, Rape of Cc1cnc(-n2ccc(C(F)(F)F)n2)nc1C(=O)c1ccc(C(F)(F)F)cc1 is greater than or equal to 4
N

----------
compounds and their reported Plant response rating, Corn
# Tested on: corn (Zea mays)
# TEST METHOD NOTES: Test B pre-/postemergence
# Format: in vivo
# EXPERIMENTAL CONTEXT: Rate 500 g/ha, Preemergence
// return a plain number; no unit text

Study these solved cases before continuing.
>>> print(df.to_string())
                                   compound                    parameter  endpoint_result
0  Cc1cnc(-c2ccc(C(F)(F)F)cc2)nc1Cn1nc(C(F)(F)F)cc1C [Compound 13]  Plant response rating, Corn                2
1  Cc1cnc(-c2ccc(OC(F)(F)F)cc2)nc1Cc1cccc(C(F)(F)F)c1 [Compound 16]  Plant response rating, Corn                0
2  Cc1cnc(-n2ccc(C(F)(F)F)n2)nc1Cc1cccc(C(F)(F)F)c1 [Example 2]  Plant response rating, Corn                2

Okay, now this compound:
For the compound Cc1cnc(-c2ccc(C(F)(F)F)cc2)nc1Cn1ccc(C(F)(F)C(F)(F)F)n1 [Compound 14] , give its measured Plant response rating, Corn value.
3

----------
compounds and their reported Cocklebur plant response rating
# System: cocklebur (Xanthium strumarium)
# TEST METHOD NOTES: Test B pre-/postemergence
# Format: in vivo
# EXPERIMENTAL CONTEXT: Rate 125 g/ha, Postemergence

Study these solved cases before continuing.
>>> df
                               smiles_input  endpoint_result
0  O=C(c1cccc(C(F)(F)F)c1)c1ccnc(-c2ccc(C(F)(F)F)cc2)n1                3
1  Cc1cnc(-n2ccc(C(F)(F)C(F)(F)F)n2)nc1C(=O)c1cccc(OC(F)(F)F)c1                5
2  CCc1cnc(-n2ccc(C(F)(F)F)n2)nc1C(=O)c1cccc(C#N)c1                4

For the compound O=C(c1cccc(C(F)(F)F)c1)c1ccnc(-n2ccc(C(F)(F)F)n2)n1 , give its measured Cocklebur plant response rating value.
2

----------
# Test system: soybean (Glycine max)
# TEST METHOD NOTES: Test B pre-/postemergence
# Format: in vivo
# EXPERIMENTAL CONTEXT: Rate 250 g/ha, Postemergence (so in the source)
PARAMETER: Plant response rating, Soybean
// return a plain number; no unit text

Check soybean (Glycine max) data and give Plant response rating, Soybean for CCc1cnc(-n2ccc(C(F)(F)F)n2)nc1Cc1cccc(OC(F)(F)F)c1 [Compound 47] .
2

Check soybean (Glycine max) data and give Plant response rating, Soybean for COc1cnc(-n2ccc(C(F)(F)F)n2)nc1Cc1cccc(C(F)(F)F)c1 [Compound 45] .
0

Check soybean (Glycine max) data and give Plant response rating, Soybean for Cc1cnc(-c2ccc(C#N)cc2)nc1Cc1cccc(C(F)(F)F)c1 [Compound 30] .
0

Check soybean (Glycine max) data and give Plant response rating, Soybean for Cc1cnc(-c2cccc(C(F)(F)F)c2)nc1Cc1cccc(C#N)c1 [Compound 39] .
0

Check soybean (Glycine max) data and give Plant response rating, Soybean for Cc1cnc(-n2cnc(C(F)(F)F)c2)nc1Cc1cccc(C(F)(F)F)c1 [Compound 44] .
2

Check soybean (Glycine max) data and give Plant response rating, Soybean for Cc1cnc(-c2ccc(F)cc2F)nc1Cc1cccc(C(F)(F)F)c1 [Compound 31] .
0

Check soybean (Glycine max) data and give Plant response rating, Soybean for Cc1cnc(-c2ccc(Cl)c(Cl)c2)nc1Cc1cccc(C#N)c1 [Compound 38] .
0

Check soybean (Glycine max) data and give Plant response rating, Soybean for Cc1cnc(-n2cnc(C(F)(F)F)n2)nc1Cc1cccc(C(F)(F)F)c1 [Compound 43] .
7

Check soybean (Glycine max) data and give Plant response rating, Soybean for Cc1cnc(-c2ccc(F)cc2F)nc1Cc1cccc(C#N)c1 [Compound 34] .
0
